Test system: Streptococcus pyogenes C-203
Experiment: In vitro antibacterial activity, agar dilution method (MIC)
Assay type: cell-based
Conditions: agar dilution with 0.5% horse serum, 37° C., 18-20 hrs
observation_type: MIC (µg/mL)
Kindly provide the numeric value in µg/mL only, without the unit symbol.

CN[C@H](CC(C)C)C(=O)N[C@H]1C(=O)N[C@@H](CC(N)=O)C(=O)N[C@H]2C(=O)N[C@H]3C(=O)N[C@H](C(=O)N[C@H](C(=O)O)c4cc(O)cc(O)c4-c4cc3ccc4O)[C@H](O[C@H]3C[C@](C)(N)[C@@H](O)[C@H](C)O3)c3ccc(c(Cl)c3)Oc3cc2cc(c3O[C@@H]2O[C@H](CO)[C@@H](O)[C@H](O)[C@H]2O[C@H]2C[C@](C)(N)[C@@H](O)[C@H](C)O2)Oc2ccc(cc2)[C@H]1O
0.39
CN[C@H](CC(C)C)C(=O)N[C@H]1C(=O)N[C@@H](CC(N)=O)C(=O)N[C@H]2C(=O)N[C@H]3C(=O)N[C@H](C(=O)N[C@H](C(=O)O)c4cc(O)cc(O)c4-c4cc3ccc4O)[C@H](O[C@H]3C[C@](C)(N)[C@@H](O)[C@H](C)O3)c3ccc(c(Cl)c3)Oc3cc2cc(c3O[C@@H]2O[C@H](CO)[C@@H](O)[C@H](O)[C@H]2O[C@H]2C[C@H](O)[C@@H](O)[C@H](C)O2)Oc2ccc(cc2)[C@H]1O
0.78
CN[C@H](CC(C)C)C(=O)N[C@H]1C(=O)N[C@@H](CC(N)=O)C(=O)N[C@H]2C(=O)N[C@H]3C(=O)N[C@H](C(=O)N[C@H](C(=O)O)c4cc(O)cc(O)c4-c4cc3ccc4O)[C@H](O[C@H]3C[C@](C)(N)[C@@H](O)[C@H](C)O3)c3ccc(c(Cl)c3)Oc3cc2cc(c3O)Oc2ccc(cc2)[C@H]1O
0.39

Now turn to the next molecule.
Q: Provide MIC value for the following molecule: CN[C@H](CC(C)C)C(=O)N[C@H]1C(=O)N[C@@H](CC(N)=O)C(=O)N[C@H]2C(=O)N[C@H]3C(=O)N[C@H](C(=O)N[C@H](C(=O)O)c4cc(O)cc(O)c4-c4cc3ccc4O)[C@H](O[C@H]3C[C@](C)(N)[C@@H](O)[C@H](C)O3)c3ccc(c(Cl)c3)Oc3cc2cc(c3O[C@@H]2O[C@H](CO)[C@@H](O)[C@H](O)[C@H]2O)Oc2ccc(cc2)[C@H]1O [Compd. C, des-(4-epi-vancosaminyl)-PA-42867-A]
Ans: 0.78

###

System: Staphylococcus aureus SMITH
Assay: In vitro antibacterial activity, agar dilution method (MIC)
Assay type: cell-based
Settings: 37° C., 18-20 hrs
observation_type: MIC (µg/mL)
Kindly provide the numeric value in µg/mL only, without the unit symbol.

Previously resolved entries follow.
CN[C@H](CC(C)C)C(=O)N[C@H]1C(=O)N[C@@H](CC(N)=O)C(=O)N[C@H]2C(=O)N[C@H]3C(=O)N[C@H](C(=O)N[C@H](C(=O)O)c4cc(O)cc(O)c4-c4cc3ccc4O)[C@H](O[C@H]3C[C@](C)(N)[C@@H](O)[C@H](C)O3)c3ccc(c(Cl)c3)Oc3cc2cc(c3O[C@@H]2O[C@H](CO)[C@@H](O)[C@H](O)[C@H]2O)Oc2ccc(cc2)[C@H]1O [Compd. C, des-(4-epi-vancosaminyl)-PA-42867-A]
1.56
CN[C@H](CC(C)C)C(=O)N[C@H]1C(=O)N[C@@H](CC(N)=O)C(=O)N[C@H]2C(=O)N[C@H]3C(=O)N[C@H](C(=O)N[C@H](C(=O)O)c4cc(O)cc(O)c4-c4cc3ccc4O)[C@H](O[C@H]3C[C@](C)(N)[C@@H](O)[C@H](C)O3)c3ccc(c(Cl)c3)Oc3cc2cc(c3O)Oc2ccc(cc2)[C@H]1O
0.78

Q: Report the value of MIC obtained on Staphylococcus aureus SMITH for CN[C@H](CC(C)C)C(=O)N[C@H]1C(=O)N[C@@H](CC(N)=O)C(=O)N[C@H]2C(=O)N[C@H]3C(=O)N[C@H](C(=O)N[C@H](C(=O)O)c4cc(O)cc(O)c4-c4cc3ccc4O)[C@H](O[C@H]3C[C@](C)(N)[C@@H](O)[C@H](C)O3)c3ccc(c(Cl)c3)Oc3cc2cc(c3O[C@@H]2O[C@H](CO)[C@@H](O)[C@H](O)[C@H]2O[C@H]2C[C@](C)(N)[C@@H](O)[C@H](C)O2)Oc2ccc(cc2)[C@H]1O .
Ans: 0.78

Numbers sourced from patent US4946941A.
